Test system: HEK293T-Gα16gust44 cells transfected with empty vector (mock)
Assay: Calcium imaging assay (FLIPR), empty vector control (mock)
Type: cell-based
Conditions: Mock, sheet TAS2R14; conc. 0,01 mM
We label by threshold. Values of Δ F/F strictly beneath -0.02 are TRUE. Values of -0.02 and up are FALSE.

C[C@H](CCC(=O)O)[C@H]1CC[C@H]2[C@@H]3[C@H](O)C[C@@H]4C[C@H](O)CC[C@]4(C)[C@H]3C[C@H](O)[C@]12C
FALSE

Please examine the following record next.
Inquiry: Bench note: check whether "C[C@H](CCC(=O)NCCS(=O)(=O)O)[C@H]1CC[C@H]2[C@@H]3[C@H](O)C[C@@H]4C[C@H](O)CC[C@]4(C)[C@H]3C[C@H](O)[C@]12C" shows Δ F/F below -0.02
Reply text: FALSE

###

Target: human TAS2R1 (Homo sapiens)
Construct: expressed in transfected cells; host or cells: HEK293T-Gα16gust44
Sequence (Q9NYW7 whole entry): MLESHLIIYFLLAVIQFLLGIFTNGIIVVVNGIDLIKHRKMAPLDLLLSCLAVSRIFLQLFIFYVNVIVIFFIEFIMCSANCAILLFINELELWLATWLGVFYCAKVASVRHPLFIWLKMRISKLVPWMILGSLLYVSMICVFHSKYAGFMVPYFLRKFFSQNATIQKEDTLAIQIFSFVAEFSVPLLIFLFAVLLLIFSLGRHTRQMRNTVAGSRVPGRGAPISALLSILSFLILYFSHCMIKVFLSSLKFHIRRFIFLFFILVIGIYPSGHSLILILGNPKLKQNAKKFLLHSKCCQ
Assay: Calcium imaging assay (FLIPR), HEK293T-Gα16gust44 cells transfected with human TAS2R1
Type: cell-based
Settings: Time 64.796 s
# RLU values compiled below
Report only the number, with the unit RLU understood.

Here are 3 compounds together with their reported answers.
C[C@H](CCC(=O)O)[C@H]1CC[C@H]2[C@@H]3[C@H](O)C[C@@H]4C[C@H](O)CC[C@]4(C)[C@H]3CC[C@]12C [Chenodeoxycholic Acid, chenodeoxycholic acid]
906.896
C[C@H](CCC(=O)O)[C@H]1CC[C@H]2[C@@H]3CC[C@@H]4C[C@H](O)CC[C@]4(C)[C@H]3CC[C@]12C [Lithocholic Acid, lithocholic acid]
814.539
C[C@H](CCC(=O)O)[C@H]1CC[C@H]2[C@@H]3[C@@H](O)C[C@@H]4C[C@H](O)CC[C@]4(C)[C@H]3CC[C@]12C [Ursodeoxycholic Acid, ursodeoxycholic acid]
647.003

Inquiry: Looking for the measured RLU of C[C@H](CCC(=O)O)[C@H]1CC[C@H]2[C@@H]3[C@H](O)C[C@@H]4C[C@H](O)CC[C@]4(C)[C@H]3C[C@H](O)[C@]12C [Cholic Acid, cholic acid] , can you help?
Reply text: 729.251

###

Measured RLU values are reported for all entries that follow.
Target: mouse Tas2r108 (Mus musculus, UniProt Q9JKT3)
Construct: expressed in transfected cells; host or cells: HEK293T-Gα16gust44
Sequence (Q9JKT3 whole entry): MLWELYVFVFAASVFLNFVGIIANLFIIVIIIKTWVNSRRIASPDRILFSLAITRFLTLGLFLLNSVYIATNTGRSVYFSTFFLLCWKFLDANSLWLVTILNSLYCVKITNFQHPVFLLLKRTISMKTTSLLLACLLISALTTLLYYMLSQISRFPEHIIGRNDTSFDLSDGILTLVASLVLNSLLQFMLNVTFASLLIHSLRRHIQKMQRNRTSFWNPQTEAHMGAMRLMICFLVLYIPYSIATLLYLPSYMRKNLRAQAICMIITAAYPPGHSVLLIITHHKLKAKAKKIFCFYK
Test: Calcium imaging assay (FLIPR), HEK293T-Gα16gust44 cells transfected with mouse Tas2r108
Assay type: cell-based
Conditions: Time 137.562 s
Kindly provide the numeric value in RLU only, without the unit symbol.

Observe how each entry below is paired with its result.
C[C@H](CCC(=O)NCCS(=O)(=O)O)[C@H]1CC[C@H]2[C@@H]3[C@H](O)C[C@@H]4C[C@H](O)CC[C@]4(C)[C@H]3C[C@H](O)[C@]12C
222.887
C[C@H](CCC(=O)O)[C@H]1CC[C@H]2[C@@H]3[C@H](O)C[C@@H]4C[C@H](O)CC[C@]4(C)[C@H]3C[C@H](O)[C@]12C
234.064
C[C@H](CCC(=O)NCC(=O)O)[C@H]1CC[C@H]2[C@@H]3[C@H](O)C[C@@H]4C[C@H](O)CC[C@]4(C)[C@H]3C[C@H](O)[C@]12C
194.213

Shift focus to the following entry.
Inquiry: Suppose we examine the compound "C[C@H](CCC(=O)O)[C@H]1CC[C@H]2[C@@H]3CC[C@@H]4C[C@H](O)CC[C@]4(C)[C@H]3C[C@H](O)[C@]12C" ; what RLU value has been reported?
Reply text: 460.71
